Field: pIC50. System: Dihydrofolate reductase (Rattus norvegicus). Provenance: assorted publications.
Tgt: Dihydrofolate reductase (Rattus norvegicus)
Sequence (Q920D2 whole entry): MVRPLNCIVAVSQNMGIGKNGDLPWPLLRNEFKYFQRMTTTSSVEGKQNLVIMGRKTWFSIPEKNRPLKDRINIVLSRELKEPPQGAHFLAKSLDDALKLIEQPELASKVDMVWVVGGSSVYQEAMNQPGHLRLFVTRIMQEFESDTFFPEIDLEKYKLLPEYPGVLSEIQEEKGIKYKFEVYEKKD
Answers are plain numbers, as −log10 of the molar value.

Here's what some known entries look like.
CN(Cc1c[nH]c2nc(N)nc(N)c12)c1cccc2ccccc12    5.09
Nc1nc(N)c2nc(CNc3c(Cl)cccc3Cl)ccc2n1    7.09
COc1ccc(-c2nc3c(N)nc(N)nc3[nH]2)cc1OC    4.28

Provide pIC50 for all items below, preserving their order.
1. COc1ccc(Cc2cnc(N)nc2N)cc1OC
2. Nc1nc(N)c2nc(CNc3ccc(Cl)cc3)cnc2n1
3. COc1cc(NCc2c[nH]c3nc(N)[nH]c(=O)c23)cc(OC)c1
4. COc1cc(C(C)Nc2cnc3nc(N)nc(N)c3c2)cc(OC)c1OC (configuration not stated)
5. COc1ccc(OC)c(NCc2ccc3nc(N)nc(N)c3c2Cl)c1
6. CCOc1ccc(OCC)c(NCc2cnc3nc(N)nc(N)c3c2C)c1
7. COc1ccc(CN(C)c2ccc3nc(N)nc(N)c3c2)c(OC)c1OC

[4.07, 6.52, 4.70, 5.90, 7.36, 6.43, 7.72]

Provide pIC50 for all items below, preserving their order.
1. Cc1ccc(SCc2cnc3nc(N)nc(N)c3n2)cc1
2. COc1ccc(OC)c(CN(C)c2cnc3nc(N)nc(N)c3c2)c1
3. CCOc1cc(Cc2cnc(N)nc2N)cc(OCC)c1OCC
4. COc1ccc(CCC2CNc3nc(N)nc(N)c3C2)cc1OC (configuration not stated)
5. COc1cccc(NCc2cnc3nc(N)nc(N)c3c2)c1

1: 4.59; 2: 7.24; 3: 4.52; 4: 5.68; 5: 6.10

Provide pIC50 for all items below, preserving their order.
1. COc1cc(Cc2cnc(N)nc2N)cc(OC)c1N
2. CCc1nc(N)nc(N)c1-c1ccc(Cl)c(/N=N/N(CCOC(C)=O)Cc2ccccc2F)c1
3. CCCc1cc(Cc2cnc(N)nc2N)cc(CCC)c1O
4. CCOc1ccc(OCC)c(N(C)Cc2cnc3nc(N)nc(N)c3c2C)c1
5. CCOc1c(CC)cc(Cc2cnc(N)nc2N)cc1CC
6. COc1ccc(C(F)(F)F)cc1N(C)Cc1cnc2nc(N)nc(N)c2c1C
7. Cc1c(CSc2cccc(Cl)c2)cnc2nc(N)nc(N)c12
8. Nc1nc(N)c2c(CNc3cc(Cl)c(-n4cccc4)c(Cl)c3)c(Br)sc2n1

[3.28, 4.83, 5.70, 6.28, 4.28, 6.64, 6.72, 5.00]

Provide pIC50 for all items below, preserving their order.
1. CC(=O)c1ccc(NCc2ccc3nc(N)nc(N)c3n2)cc1
2. Cc1ccccc1CC1CCc2nc(N)nc(N)c2C1 (configuration not stated)
3. CCc1cc(Cc2cnc(N)nc2N)cc(CC)c1N
4. COc1cc(Cc2cnc(N)nc2N)cc(OCCCCC(=O)O)c1OC
5. Nc1nc(N)c2c(CNc3cccc4ccccc34)c[nH]c2n1
6. COc1ccc(NCc2cnc3nc(N)nc(N)c3c2C)c(C)c1
7. COc1cccc(SCc2cnc3nc(N)nc(N)c3n2)c1

[8.60, 6.96, 4.42, 4.57, 4.23, 7.54, 5.11]
